System: CEM-C1
Experiment: Tumour cell proliferation inhibition, MTT assay, CEM-C1
Format: cell-based, human
Details: 72 hours, D-tartrate

compound	IC50 [nM]
Cn1nccc1-c1ccc(C(=O)N[C@@H]2CNCC[C@H]2c2ccc(F)c(F)c2)c(F)c1 [VII-34, D-tartrate]	130

* * *

Each entry below carries its recorded IC50.
Molecular target: AKT1/PKBα (Homo sapiens)
Sequence (P31749 whole entry): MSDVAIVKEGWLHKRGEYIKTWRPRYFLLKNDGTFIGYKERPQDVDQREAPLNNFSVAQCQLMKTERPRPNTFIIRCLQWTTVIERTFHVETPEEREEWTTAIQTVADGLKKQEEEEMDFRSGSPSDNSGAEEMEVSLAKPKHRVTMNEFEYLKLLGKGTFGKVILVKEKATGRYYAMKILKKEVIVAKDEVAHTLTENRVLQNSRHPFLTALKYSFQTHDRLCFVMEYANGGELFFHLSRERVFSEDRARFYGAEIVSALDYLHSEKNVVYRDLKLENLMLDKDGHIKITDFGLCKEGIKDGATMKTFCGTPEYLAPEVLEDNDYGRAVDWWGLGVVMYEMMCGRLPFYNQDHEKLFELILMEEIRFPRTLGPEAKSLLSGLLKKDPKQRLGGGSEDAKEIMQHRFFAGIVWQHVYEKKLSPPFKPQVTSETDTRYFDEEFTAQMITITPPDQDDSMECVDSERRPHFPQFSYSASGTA
Assay: Akt1 enzyme inhibitory activity, AKT1/PKBα KinEASE FP Fluorescein Green Assay
Conditions: fluorescence polarization kit assay; read-out: Akt1 IC50 (grade)
Counter-ions that a name gives are not always drawn.
measure: IC50

compound	system_tested	reported
Cn1ncc(Cl)c1-c1ccc(C(=O)N[C@@H]2CNCC[C@H]2c2ccc(Cl)cc2)c(C(F)(F)F)c1 [reference compound]	AKT1/PKBα (Homo sapiens)	1 to 10 nM
Cn1nccc1-c1ccc(C(=O)N[C@@H]2CNCC[C@H]2c2ccc(F)c(F)c2)c(F)c1 [VII-37, citrate]	AKT1/PKBα (Homo sapiens)	1 to 10 nM
Cn1nccc1-c1ccc(C(=O)N[C@@H]2CNCC[C@H]2c2c(F)c(F)cc(F)c2F)c(F)c1	AKT1/PKBα (Homo sapiens)	10 to 50 nM
Cn1ncc(C2CC2)c1-c1ccc(C(=O)N[C@@H]2CNCC[C@H]2c2ccc(F)c(F)c2)c(F)c1	AKT1/PKBα (Homo sapiens)	> 50 nM
Cn1ncc(Cl)c1-c1ccc(C(=O)N[C@@H]2CNCC[C@H]2c2ccc(F)c(F)c2)c(F)c1	AKT1/PKBα (Homo sapiens)	10 to 50 nM
[2H]C([2H])([2H])n1nccc1-c1ccc(C(=O)N[C@@H]2CNCC[C@H]2c2ccc(F)c(F)c2)c(F)c1	AKT1/PKBα (Homo sapiens)	10 to 50 nM
Cn1nccc1-c1ccc(C(=O)N[C@H]2CNCC[C@@H]2c2ccc(F)c(F)c2)c(F)c1	AKT1/PKBα (Homo sapiens)	10 to 50 nM
Cn1nccc1-c1cc(F)c(C(=O)N[C@@H]2CNCC[C@H]2c2ccc(F)c(F)c2)cc1F	AKT1/PKBα (Homo sapiens)	1 to 10 nM
CCn1nccc1-c1ccc(C(=O)N[C@@H]2CNCC[C@H]2c2ccc(F)c(F)c2)c(F)c1	AKT1/PKBα (Homo sapiens)	10 to 50 nM
Cn1nccc1-c1cc(F)c(C(=O)N[C@@H]2CNCC[C@H]2c2ccc(F)c(F)c2)c(F)c1	AKT1/PKBα (Homo sapiens)	10 to 50 nM
Cn1nccc1-c1ccc(S(=O)(=O)N[C@@H]2CNCC[C@H]2c2ccc(F)c(F)c2)c(F)c1	AKT1/PKBα (Homo sapiens)	> 50 nM
Cc1cnn(C)c1-c1ccc(C(=O)N[C@@H]2CNCC[C@H]2c2ccc(F)c(F)c2)c(F)c1	AKT1/PKBα (Homo sapiens)	10 to 50 nM
Cn1nccc1-c1ccc(C(=O)N[C@@H]2CNCC[C@H]2c2ccc(F)c(F)c2)c(F)c1.O=C(O)C[C@H](O)C(=O)O [VII-30, L-malate]	AKT1/PKBα (Homo sapiens)	1 to 10 nM
Cn1ncc(Cl)c1-c1ccc(C(=O)N[C@@H]2CNC[C@H]2c2ccc(F)c(F)c2)c(F)c1	AKT1/PKBα (Homo sapiens)	10 to 50 nM
O=C(N[C@@H]1CNCC[C@H]1c1ccc(F)c(F)c1)c1ccc(-c2ccnn2C2CC2)cc1F	AKT1/PKBα (Homo sapiens)	10 to 50 nM
Cn1nccc1-c1ccc(C(=O)N[C@@H]2CNCC[C@H]2c2ccc(F)c(F)c2)c(F)c1 [VII-31, D-malate]	AKT1/PKBα (Homo sapiens)	1 to 10 nM
Cc1cc(-c2ccnn2C)cc(F)c1C(=O)N[C@@H]1CNCC[C@H]1c1ccc(F)c(F)c1	AKT1/PKBα (Homo sapiens)	> 50 nM
Cn1nccc1-c1ccc(C(=O)N[C@@H]2CNCC[C@H]2c2ccc(F)c(F)c2)c(F)c1.O=C(O)C(O)C(O)C(=O)O [VII-33, L-tartrate]	AKT1/PKBα (Homo sapiens)	1 to 10 nM
Cn1nccc1-c1ccc(C(=O)N[C@@H]2CNCC[C@H]2c2ccc(F)c(F)c2)c(F)c1F	AKT1/PKBα (Homo sapiens)	10 to 50 nM
Cn1ncc(Cl)c1-c1ccc(C(=O)N[C@@H]2CNCC[C@H]2c2ccc(F)c(F)c2)cc1F [reference compound]	AKT1/PKBα (Homo sapiens)	10 to 50 nM
Cn1nccc1-c1ccc(C(=O)N[C@@H]2CNCC[C@H]2c2ccc(F)c(F)c2)cc1 [drawing 111, reference compound]	AKT1/PKBα (Homo sapiens)	10 to 50 nM
Cn1nccc1-c1ccc(C(=O)N[C@@H]2CNCC[C@H]2c2cc(F)c(F)c(F)c2)c(F)c1	AKT1/PKBα (Homo sapiens)	1 to 10 nM
Cn1ncnc1-c1ccc(C(=O)N[C@@H]2CNCC[C@H]2c2ccc(F)c(F)c2)c(F)c1	AKT1/PKBα (Homo sapiens)	10 to 50 nM
Cn1nccc1-c1ccc(C(=O)N[C@@H]2CNCC[C@H]2c2ccc(F)c(F)c2)c(F)c1 [VII-34, D-tartrate]	AKT1/PKBα (Homo sapiens)	1 to 10 nM
Cn1nccc1-c1cc(F)c(C(=O)N[C@@H]2CNC[C@H]2c2ccc(F)c(F)c2)c(F)c1	AKT1/PKBα (Homo sapiens)	10 to 50 nM
Cn1nccc1-c1ccc(C(=O)N[C@@H]2CNCC[C@H]2c2ccc(F)c(F)c2)c(F)c1 (racemic) [VII-32]	AKT1/PKBα (Homo sapiens)	1 to 10 nM
